// provenance: patent US5401490A

Measured tissue uptake at 0.25 h values are reported for all entries that follow.
- assay notes: Tissue distribution of radioactivity after intravenous injection
- Type: in vivo, BALB/C mice
- experimental setup: mouse, kidney, iv; 0.25 h, i.v.; read-out: Percent of Injected Dose per Gram, Kidney
Report the value in %ID/g with no unit label.

> print(dat)
                                   compound            endpoint.name  display.unit  numeric.value
1  O=[N+]([O-])c1nccn1[C@@H]1O[C@H](CI)[C@H](O)[C@H](O)[C@H]1O  tissue uptake at 0.25 h         %ID/g           15.6

Now look at this one.
# tissue uptake at 0.25 h (compound: O=[N+]([O-])c1nccn1[C@@H]1O[C@H](CI)[C@@H](O)[C@@H]1O ) is 6.56

====

- assay notes: Tissue distribution of radioactivity after intravenous injection
- Format: in vivo, BALB/C mice
- experimental setup: mouse, heart, iv; 4 h, i.v.; read-out: Percent of Injected Dose per Gram, Heart
endpoint name: tissue uptake at 4 h (%ID/g)
Report the value in %ID/g with no unit label.

# tissue uptake at 4 h (molecule: O=[N+]([O-])c1nccn1[C@@H]1O[C@H](CI)[C@@H](O)[C@@H]1O ) is 0.32

====

Measured tissue uptake at 0.5 h values are reported for all entries that follow.
- assay notes: Tissue distribution of radioactivity after intravenous injection
- Type: in vivo, BALB/C mice
- experimental setup: mouse, muscle, iv; 0.50 h, i.v.; read-out: Percent of Injected Dose per Gram, Muscle
Report the value in %ID/g with no unit label.

> print(dat)
                                   compound  numeric.value
1  O=[N+]([O-])c1nccn1[C@@H]1O[C@H](CI)[C@H](O)[C@H](O)[C@H]1O            0.7

Now look at this one.
# tissue uptake at 0.5 h (compound: O=[N+]([O-])c1nccn1[C@@H]1O[C@H](CI)[C@@H](O)[C@@H]1O ) is 2.77

====

- assay notes: Tissue distribution of radioactivity after intravenous injection
- Format: in vivo, BALB/C mice
- experimental setup: mouse, kidney, iv; 2 h, i.v.; read-out: Percent of Injected Dose per Gram, Kidney
- Description: Tables 1 and 2 show the percent of injected IAZG and IAZA respectively per gram of wet tissue for selected tissues excised from BALB/C mice bearing EMT-6 tumors. This tumor model is known to have a high hypoxic fraction (0.33) (16). […] Hepatobiliary excretion may play a role in blood clearance as evidenced by elevated liver radioactivity and the appearance of activity in the intestine. […] This supposition is supported by the persistence of liver radioactivity at longer time periods. […]
Measured tissue uptake at 2 h values are reported for all entries that follow.
Report the value in %ID/g with no unit label.

> print(dat)
                                   compound         endpoint.name  numeric.value
1  O=[N+]([O-])c1nccn1[C@@H]1O[C@H](CI)[C@H](O)[C@H](O)[C@H]1O  tissue uptake at 2 h           2.67

Now look at this one.
# tissue uptake at 2 h (compound: O=[N+]([O-])c1nccn1[C@@H]1O[C@H](CI)[C@@H](O)[C@@H]1O ) is 1.8

====

- assay notes: Tissue distribution of radioactivity after intravenous injection
- Type: in vivo, BALB/C mice
- experimental setup: mouse, heart, iv; 0.25 h, i.v.; read-out: Percent of Injected Dose per Gram, Heart
- Text: Tables 1 and 2 show the percent of injected IAZG and IAZA respectively per gram of wet tissue for selected tissues excised from BALB/C mice bearing EMT-6 tumors. This tumor model is known to have a high hypoxic fraction (0.33) (16). […] Hepatobiliary excretion may play a role in blood clearance as evidenced by elevated liver radioactivity and the appearance of activity in the intestine. […] This supposition is supported by the persistence of liver radioactivity at longer time periods. […]
endpoint name: tissue uptake at 0.25 h (%ID/g)
Report the value in %ID/g with no unit label.

# tissue uptake at 0.25 h (compound: O=[N+]([O-])c1nccn1[C@@H]1O[C@H](CI)[C@@H](O)[C@@H]1O ) is 4.69
